system-tested: T1, E. coli Trigger Factor (TF), full length (E. coli, UniProt P0A850 1-432)
T1 sequence (looked up): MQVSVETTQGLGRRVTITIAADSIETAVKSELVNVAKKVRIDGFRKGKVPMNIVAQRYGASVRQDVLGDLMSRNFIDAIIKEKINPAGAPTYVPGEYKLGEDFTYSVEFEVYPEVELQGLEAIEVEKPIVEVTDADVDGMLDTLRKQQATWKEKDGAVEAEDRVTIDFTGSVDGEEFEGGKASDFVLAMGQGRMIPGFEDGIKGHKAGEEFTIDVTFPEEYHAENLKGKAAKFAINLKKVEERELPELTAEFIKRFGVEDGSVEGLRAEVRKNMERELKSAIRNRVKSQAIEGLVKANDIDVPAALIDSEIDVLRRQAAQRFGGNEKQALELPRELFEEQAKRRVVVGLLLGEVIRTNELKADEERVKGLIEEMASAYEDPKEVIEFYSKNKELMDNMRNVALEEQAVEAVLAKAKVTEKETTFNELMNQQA
test-method-notes: ITC + NMR titration
pKd: −log10 of the molar value.
quantity: pKd

Summary for this binder, PhoA site b (independent fragment) (domain or fragment) TPEMPVLENRAAQGDITAPGGARRLTGDQTAALRDSLSDKPAKNIILLIGDGMGDS : pKd is ~3.70
